system: RXF 393 renal; test: NCI tumour cell line growth inhibition, 48 h
metric-name: TGI

// TGI value for c1ccc(CN(Cn2cccn2)Cn2cccn2)nc1 : > 100 µM

Query NC1=NNC2(C(N)=N1)c1ccccc1-c1ccccc12 yields TGI of > 10 µM

Sure, the documented TGI for Nc1ccn(C2CC(CO)C(O)C2O)c(=O)n1 (stereo unspecified) is > 57.7 µM

Recorded result, CN(C)c1nc(NN)c2c(-c3ccccc3)c(-c3ccccc3)oc2n1 , TGI: > 100 µM

Record COc1ccc(C(c2c(O)c3ccccc3n(C)c2=O)c2c(O)c3ccccc3n(C)c2=O)cc1 . Reported TGI: > 100 µM

Consider Clc1c(Cl)c2c(Cl)c(Cl)c1C[P+](c1ccccc1)(c1ccccc1)CC[P+](c1ccccc1)(c1ccccc1)Cc1c(Cl)c(Cl)c(c(Cl)c1Cl)C[P+](c1ccccc1)(c1ccccc1)CC[P+](c1ccccc1)(c1ccccc1)C2 . Its measured TGI is 10.9 µM
